- System: HEK-293T
- experimentalProtocol: Incucyte cell viability with HEK293T; note: unitless GR value; below 1 slowed growth and below 0 cell loss
- Format: toxicity, cell-based
- experimentalContext: human, 18 h, 10 µM, compound concentration 10 uM, replicate number 1
Reported Growth Rate values for a set of compounds
recordedMetric: Growth Rate

>>> recordedmeasurement("CC1(C)CCC[C@]2(C)[C@@H](C=O)C(C=O)=CC[C@@H]12")
0.52
>>> recordedmeasurement("Cc1ccc(S(=O)(=O)Nc2ccc(-n3nc(C(F)(F)F)cc3C(F)(F)F)cc2)cc1")
0.47
>>> recordedmeasurement("COc1ccc2nc3ccc(OC)cc3c(SCCCN)c2c1.Cl")
-0.57
>>> recordedmeasurement("CCN1CCN(Cc2ccc(NC(=O)c3ccc(C)c(NC(=O)c4cncc(-c5cccs5)c4)c3)cc2C(F)(F)F)CC1")
-0.73
>>> recordedmeasurement("O=C(Nc1cccc(C(F)(F)F)c1)c1cc(Cl)ccc1O")
-0.77
>>> recordedmeasurement("Cl.O=C(NCCN1CCC2(CC1)C(=O)NCN2c1cccc(F)c1)c1ccc2ccccc2c1")
0.22
>>> recordedmeasurement("C[C@]12CC[C@@H]3c4ccc(C(N)=O)cc4CC[C@H]3[C@@H]1CC=C2c1cncc(F)c1")
0.96
>>> recordedmeasurement("CN1CCc2cc(Nc3ncc(C(F)(F)F)c(NCc4cc[nH]n4)n3)ccc2C1")
0.42
>>> recordedmeasurement("CCc1ccccc1C(=O)Nc1n[nH]c2c(C)c(F)c(C3C(C#N)=C(C)N(C)C(C)=C3C#N)cc12")
0.99
>>> recordedmeasurement("S=c1[nH]nc(-c2cccs2)n1-c1ccccc1")
0.91
>>> recordedmeasurement("O=C1NC(NC23CC4CC(CC(C4)C2)C3)=N/C1=C\\c1ccc2ncsc2c1")
0.06
>>> recordedmeasurement("Nc1ncc2c(n1)-c1c([nH]c3ccc(C4CC4)cc13)CCCC2")
0.74
>>> recordedmeasurement("CC(C)(C)c1cnc(CSc2cnc(NC(=O)C3CCNCC3)s2)o1")
-0.21
>>> recordedmeasurement("CN(C(=O)CCOCCOCCOCCOCCNc1cccc2c1C(=O)N(C1CCC(=O)NC1=O)C2=O)[C@H]1CC[C@@]2(C)[C@@H](CC[C@@H]3[C@@H]2CC[C@]2(C)[C@@H](c4ccc5ccncc5c4)CC[C@@H]32)C1 (some centres undefined)")
0.76
>>> recordedmeasurement("Cc1nc2c(cc1F)c(-c1nnc3c(n1)NC(=O)C3(C)C)nn2Cc1cccc(F)c1F")
0.75
>>> recordedmeasurement("CC(C)CC(=O)Nc1cncc(-c2ccc3[nH]nc(-c4nc5c(-c6cccc(F)c6)cncc5[nH]4)c3c2)c1")
-0.67
>>> recordedmeasurement("Cc1c(-c2c(F)cc(C(N)=O)c3[nH]c4c(c23)CC[C@H](C(C)(C)O)C4)cccc1-n1c(=O)c2cccc(F)c2n(C)c1=O")
-0.43
>>> recordedmeasurement("Cc1cn([C@@H](C)CC#N)c(=O)c2cc(Cn3nc(C(F)F)cc3Cl)nn12")
0.89
>>> recordedmeasurement("Cc1cc(Cn2c(N3CC4(CNC4)C3)nc3c(N4CCN(C)CC4)cc(Cl)cc32)cc(C)c1F")
-0.67
>>> recordedmeasurement("CC(F)(F)CN1C(=O)c2[nH]nc(-c3cccc4[nH]c(=O)oc34)c2C1c1ccc(Oc2cc(C(F)(F)F)cc(C(F)(F)F)c2)cc1 (centres undefined)")
0.83
>>> recordedmeasurement("COc1cc(C(=O)NC2CCN(C)CC2)ccc1Nc1ncc2c(n1)N(C1CCCC1)CC(F)(F)C(=O)N2C")
0.53
>>> recordedmeasurement("CN(C)C/C=C/C(=O)Nc1cccc(C(=O)Nc2ccc(Nc3nccc(-c4cccnc4)n3)cc2)c1")
-0.74
>>> recordedmeasurement("COc1ccc(CC[C@@H](OC(=O)[C@@H]2CCCCN2C(=O)[C@H](c2cc(OC)c(OC)c(OC)c2)C2CCCCC2)c2cccc(OCCN3CCOCC3)c2)cc1OC")
0.94
>>> recordedmeasurement("CNc1nc(Nc2ccc(C(=O)N3CCOCC3)cc2OC)nc2[nH]cc(Cl)c12")
0.26
>>> recordedmeasurement("COc1ccc(COc2ccc(Cc3cnc(N)nc3N)cc2OC)cc1 [GW632580X]")
0.93
>>> recordedmeasurement("FC(F)(F)c1ccccc1-c1cc(C(F)(F)F)c2[nH]c(C3=NOC4(CCCCC4)C3)nc2c1")
-0.22
>>> recordedmeasurement("CC(=O)Nc1nc(CN2CCC[C@H](Cc3cc(C)nc(C)c3)C2)cs1")
0.81
>>> recordedmeasurement("O=c1cc(-c2ccccc2)oc2c1ccc1ccccc12")
0.95
>>> recordedmeasurement("O=C1CSC(=O)N1C(CCc1ccncc1)COc1ccc(-c2cccc([N+](=O)[O-])c2)cc1 (centres undefined)")
0.48
>>> recordedmeasurement("COc1cc(Cl)c(C(=O)N[C@@H](CN[C@H]2CC[C@@H](N)CC2)Cc2ccc(C#N)cc2)cc1-c1ccc(CN[C@H](C)c2ccc(C)cc2)o1")
-0.48
>>> recordedmeasurement("Cc1ccc(-c2c(C(=O)CF)n(CCCO)c3ncnc(N)c23)cc1")
0.96
>>> recordedmeasurement("Cl.Cl.O=[N+]([O-])c1ccc(CN2CCOCCOCCN(Cc3ccc([N+](=O)[O-])cc3)CCOCC2)cc1")
0.13
>>> recordedmeasurement("Clc1cccc(Nc2nccc(NCCCN3CCOCC3)n2)c1")
0.37
>>> recordedmeasurement("Cc1cc(-c2cc3ncccc3c(OC[C@H]3CCCNC3)n2)ccc1N(C)C.O=C(O)C(F)(F)F")
-0.34
